Target: HEK293 Galpha15/GCaMP6s without NPYLR7, calcium fluorescence
Assay: nonspecific activation in parental Galpha15/GCaMP6s cells – cell-based, HEK293 lacking NPYLR7, counter-screen for mosquito NPYLR7 agonist project, dose response (AID 1259426);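 note: potency for a rise in fluorescence over baseline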
The source made the active and inactive calls.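 Rule for the calls: active = EC50 under a set limit in control cells lacking the mosquito receptor, marking a fluorescence artifact; inactive = the rest.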
Outcome (select one): active, inactive

Field: example entries. Status: answers known.
CC(C(=O)O)n1c(O)c(C=C2C=Nc3ccccc32)sc1=S (stereo unspecified) : active
O=C1CCCC2Nc3ncnc(Cl)c3OC12 (stereo unspecified) : active

Task item: Assay outcome for `CCOCCCN1C(=O)C(=Cc2ccccc2O)NC1=S` : what was it?
Reply: active

Task item: Assay outcome for O=C1OC2(c3cc(Br)c(O)cc3Oc3c2cc(Br)c(O)[c]3[Hg])c2ccccc21 (stereo unspecified) : what was it?
Reply: active

Task item: Assay outcome for `O=c1oc2c(CN3CCN(CCO)CC3)c(O)ccc2cc1-c1nc2ccccc2s1` : what was it?
Reply: active

Task item: Assay outcome for `Cc1oc(-c2cccc(NC(=O)CC(C)C)c2)nc1CNC(=O)Cc1cc(F)cc(F)c1` : what was it?
Reply: inactive

Task item: Assay outcome for `COc1cccc(/C=C2\Oc3c(ccc4c3CN(Cc3ccncc3)CO4)C2=O)c1` : what was it?
Reply: active

Task item: Assay outcome for `CC(=O)NN1C(=O)/C(=C\c2ccc(O)cc2)SC1=S` : what was it?
Reply: active

Task item: Assay outcome for `CCOc1cc(/C=C(\C#N)c2nc3ncc(Br)cc3[nH]2)ccc1O` : what was it?
Reply: active

Task item: Assay outcome for `CCOc1cc(C=O)c(O)c(C=O)c1` : what was it?
Reply: active

Task item: Assay outcome for `CC(C)N1CCc2c(sc(NC(=O)C3CC3)c2-c2nc3ccccc3s2)C1` : what was it?
Reply: active

Task item: Assay outcome for `CCN1CCN(Cc2c(O)ccc3c2O/C(=C\c2cc4cc(Br)ccc4o2)C3=O)CC1` : what was it?
Reply: active

Task item: Assay outcome for `CCOc1cc(/C=C2\C(=N)N3N=CSC3=NC2=O)cc(Br)c1OC(=O)c1ccccc1` : what was it?
Reply: active

Task item: Assay outcome for CCOC(=O)C1CCN(C(=O)CC(c2cccc(C(F)(F)F)c2)c2c[nH]c3c(CC)cccc23)CC1 (stereo unspecified) : what was it?
Reply: inactive

Task item: Assay outcome for CN(Cc1ccccc1)C1=CC2=CC(=C(C#N)C#N)CCC2CC1 (stereo unspecified) : what was it?
Reply: inactive

Task item: Assay outcome for `Cc1cc2nc3c(=O)[nH]c(=O)nc-3n(C[C@H](O)[C@H](O)[C@H](O)CO)c2cc1C` : what was it?
Reply: active

Task item: Assay outcome for `CN1C(=S)N(C2CCCCC2)C(=O)/C1=C\c1ccc2c(c1)OCO2` : what was it?
Reply: inactive

----------
Biological target: HEK293 Galpha15/GCaMP6s without NPYLR7, calcium fluorescence
Experiment: nonspecific activation in parental Galpha15/GCaMP6s cells – cell-based, HEK293 lacking NPYLR7, counter-screen for mosquito NPYLR7 agonist project, dose response (AID 1259426);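 note: potency for a rise in fluorescence over baseline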
Activity calls are given as the source filed them.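 The calls were made as follows: active = EC50 under a set limit in control cells lacking the mosquito receptor, marking a fluorescence artifact; inactive = the rest.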
Quick reference for EC50 among some molecules

For orientation, consider the following solved cases.
N#CC1C(=N)SC(=N)C(C#N)C1c1ccccc1F (stereo not drawn) : 10.2 µM
COc1cc(C=C(C#N)S(=O)(=O)c2cc(Cl)ccc2Cl)cc(Br)c1O : 6.43 µM

Turning now to a further record.
Task item: For the molecule `Nc1c2c(nc3sc4c(c13)CCCC4)CCCCC2` , what EC50 is on record?
Reply: > 20 µM (inactive)

These data points were gathered from PubChem BioAssay AID1259426.
